Target: MAGI2_6, Q86UL8
Sequence (Q86UL8 1141-1229): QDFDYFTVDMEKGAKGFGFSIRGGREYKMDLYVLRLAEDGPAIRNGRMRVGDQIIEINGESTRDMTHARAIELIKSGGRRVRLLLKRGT
Assay: holdup assay
Design: key: below the threshold = too weak to quantify, mostly under pKd 3.1 to 4
Conditions: plain residues with an end cap or a label only (N-terminal biotin on a linker: ado-ado)
resultType: pKd

PEYLGLDVPV [ERBB2, P04626]	below the threshold
QPCFNKLFPL [LPXN, O60711]	below the threshold
QSLNRMEYIV [JAG1, P78504]	below the threshold
